Please respond with reported pIC50 for every item in the list.
# targetOrSystem: human VEGFR-2 (Homo sapiens, UniProt P35968)
# Construct: VEGFR-2 in HepG2 cell line; endogenous in cells
# Sequence (P35968 20-1356): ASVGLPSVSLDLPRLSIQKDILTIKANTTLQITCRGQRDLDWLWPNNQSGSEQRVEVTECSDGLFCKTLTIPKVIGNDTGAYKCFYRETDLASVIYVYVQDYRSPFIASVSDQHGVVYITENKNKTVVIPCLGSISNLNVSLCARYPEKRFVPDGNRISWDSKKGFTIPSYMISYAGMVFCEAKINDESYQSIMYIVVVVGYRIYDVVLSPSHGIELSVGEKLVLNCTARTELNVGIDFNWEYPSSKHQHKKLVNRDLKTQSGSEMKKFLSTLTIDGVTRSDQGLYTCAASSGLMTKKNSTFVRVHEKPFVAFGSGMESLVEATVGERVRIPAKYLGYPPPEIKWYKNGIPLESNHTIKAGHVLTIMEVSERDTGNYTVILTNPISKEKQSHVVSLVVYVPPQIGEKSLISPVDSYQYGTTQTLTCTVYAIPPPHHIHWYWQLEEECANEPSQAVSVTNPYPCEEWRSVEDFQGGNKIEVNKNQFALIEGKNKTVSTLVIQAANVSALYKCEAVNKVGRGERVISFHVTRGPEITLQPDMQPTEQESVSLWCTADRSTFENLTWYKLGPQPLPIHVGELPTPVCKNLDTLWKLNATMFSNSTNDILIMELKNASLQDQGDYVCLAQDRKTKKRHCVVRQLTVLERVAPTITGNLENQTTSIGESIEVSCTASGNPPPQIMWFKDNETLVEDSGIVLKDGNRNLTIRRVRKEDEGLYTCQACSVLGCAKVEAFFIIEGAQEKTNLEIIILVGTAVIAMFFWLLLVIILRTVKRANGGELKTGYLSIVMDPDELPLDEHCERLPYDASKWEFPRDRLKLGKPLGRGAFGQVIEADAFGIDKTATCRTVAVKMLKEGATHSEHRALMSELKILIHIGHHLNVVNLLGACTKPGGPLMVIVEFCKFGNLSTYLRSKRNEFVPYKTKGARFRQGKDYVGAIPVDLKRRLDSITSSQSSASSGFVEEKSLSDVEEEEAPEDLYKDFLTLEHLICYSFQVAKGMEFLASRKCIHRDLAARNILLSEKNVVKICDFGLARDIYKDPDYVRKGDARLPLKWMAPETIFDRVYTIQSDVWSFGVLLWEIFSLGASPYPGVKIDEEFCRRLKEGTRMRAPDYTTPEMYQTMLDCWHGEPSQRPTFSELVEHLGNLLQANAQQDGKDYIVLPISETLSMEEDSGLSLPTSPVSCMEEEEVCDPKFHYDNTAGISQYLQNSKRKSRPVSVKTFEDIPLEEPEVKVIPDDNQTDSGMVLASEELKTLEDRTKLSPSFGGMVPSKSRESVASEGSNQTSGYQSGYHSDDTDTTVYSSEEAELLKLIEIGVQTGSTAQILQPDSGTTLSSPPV
# experimentalDetails: In vitro VEGFR-2 enzyme inhibition assay (Human VEGFR-2 ELISA kit)
# Experimental: 3- 4.2. Experimental of biological testing 4.2.1. In vitro anti-proliferative activity […] The tested cell lines were purchased and dropped on the appropriate growth medium. The growth medium was supplemented with […] of streptomycin, 100 units/mL of penicillin and 10% of heat-inactivated fetal bovine serum in a humidified 5% (v/v) CO2 atmosphere at 37 ◦C. […] nominated as a standard VEGFR-2 inhibitor. […] Finally, the stop solution was added, and the intensity of the color produced was measured at […]
// pIC50 here means minus log10 of the molar concentration (mol/L)

Given the molecule `COc1cc(/C=N/NC(=O)c2ccc(NC(=O)c3cccnc3)cc2)cc(OC)c1OC` , write its reported pIC50.
6.60

Give the reported pIC50 for this molecule. `O=C(N/N=C/c1cccc([N+](=O)[O-])c1)c1ccc(NC(=O)c2cccnc2)cc1`
6.53

Fill in pIC50 for record `CC(=O)Nc1ccc(C(=O)N/N=C(\C)c2ccc(NC(=O)c3cccnc3)cc2)cc1`
7.06

# return recorded pIC50 for input `C/C(=N\NC(=O)c1ccccc1Cl)c1ccc(NC(=O)c2cccnc2)cc1`
6.84
